The values you see were collected from patent US12029728B2.

System: T. cruzi epimastigotes
Experiment: T. cruzi epimastigote toxicity, visually assessed
Format: cell-based, Trypanosoma cruzi
Conditions: Trypanosoma cruzi; epimastigotes, 100 μM, 48 hours at 30° C.; read-out: T. cruzi death @ 100 μM
Description: A 1:20 working dilution of T. cruzi epimastigotes was prepared in LIT1029 medium from a saturated (˜4×10^6 cells/mL) culture. 100 μL of the 1:20 working dilution was plated, and the epimastigotes were incubated with a compound of the disclosure at varying concentrations for 48 hours at 30° C. Following T. cruzi epimastigote treatment with a compound of the disclosure, the toxicity of compounds towards T. cruzi epimastigotes was visually assessed.
result type: killing at 100 µM (%)
Respond numerically; units are % and should not be typed.

# annotated cases, reported killing at 100 µM shown
# compound, result type, reading unit, endpoint result
rows = [
    ("O=C(NO)C(c1ccccc1)c1c(-c2cccc3ccccc23)[nH]c2c1ccc1ccccc12 (stereo not drawn)", "killing at 100 µM", "%", 0),
    ("Cc1[nH]c2ccccc2c1C(C(=O)NO)c1ccccc1 (stereo not drawn)", "killing at 100 µM", "%", 0),
    ("COc1ccc(C(C(=O)NO)c2c(-c3ccc4ccccc4c3)[nH]c3ccccc23)cc1 (stereo not drawn)", "killing at 100 µM", "%", 0),
    ("N#CC(c1ccccc1)c1c(-c2ccc3ccccc3c2)[nH]c2ccccc12 (stereo not drawn)", "killing at 100 µM", "%", 100),
    ("O=C(NO)C(c1ccccc1)c1c(-c2ccccc2)[nH]c2ccccc12 (stereo not drawn)", "killing at 100 µM", "%", 100),
]

Query string: For Cn1c(-c2ccc3ccccc3c2)c(C(C(=O)NO)c2ccccc2)c2ccccc21 (stereo not drawn) , write its killing at 100 µM.
Result string: 100

Query string: Give the reported value of killing at 100 µM for this record: CN(C)c1ccc(C(C(=O)NO)c2c(-c3ccc4ccccc4c3)[nH]c3ccccc23)cc1 (stereo not drawn)
Result string: 100

Query string: # return recorded killing at 100 µM for entry NC(=O)C(c1ccccc1)c1c(-c2ccc3ccccc3c2)[nH]c2ccccc12 (stereo not drawn)
Result string: 100

----------
System: T. cruzi epimastigotes
Experiment: T. cruzi epimastigote toxicity, visually assessed
Assay type: cell-based, Trypanosoma cruzi
Conditions: 48 hours at 30° C.
Protocol: A 1:20 working dilution of T. cruzi epimastigotes was prepared in LIT1029 medium from a saturated (˜4×10^6 cells/mL) culture. 100 μL of the 1:20 working dilution was plated, and the epimastigotes were incubated with a compound of the disclosure at varying concentrations for 48 hours at 30° C. Following T. cruzi epimastigote treatment with a compound of the disclosure, the toxicity of compounds towards T. cruzi epimastigotes was visually assessed.
result type: Concentration at which T. cruzi epimastigote death is greater than or equal to ~99% (µM)
Write the value in µM as a bare number.

Reference set, count: 4
# compound, reading unit, endpoint result
rows = [
    ("CN(C)c1ccc(C(C(=O)NO)c2c(-c3ccc4ccccc4c3)[nH]c3ccccc23)cc1 (stereo not shown)", "µM", 100),
    ("NC(=O)C(c1ccccc1)c1c(-c2ccc3ccccc3c2)[nH]c2ccccc12 (stereo not shown)", "µM", 50),
    ("CCCCn1c(-c2ccc3ccccc3c2)c(C(C(=O)NO)c2ccccc2)c2ccccc21 (stereo not shown)", "µM", 25),
    ("O=C(NO)C(c1ccccc1)c1c(-c2ccccc2)[nH]c2ccccc12 (stereo not shown)", "µM", 100),
]

Note: attention shifts to another entry.
Query string: Note Concentration at which T. cruzi epimastigote death is greater than or equal to ~99% for the compound shown: O=C(NO)C(c1ccccc1)c1c(-c2ccc3ccccc3c2)[nH]c2ccccc12 (stereo not shown)
Result string: 6
